Biological target: T1, recombinant human CEACAM-1 (R&D Systems cat. no. 2244-CM-050) (human, UniProt P13688 35-428)
T1 construct: Coated on the ELISA plate at 0.5 ug/ml
T1 sequence (looked up): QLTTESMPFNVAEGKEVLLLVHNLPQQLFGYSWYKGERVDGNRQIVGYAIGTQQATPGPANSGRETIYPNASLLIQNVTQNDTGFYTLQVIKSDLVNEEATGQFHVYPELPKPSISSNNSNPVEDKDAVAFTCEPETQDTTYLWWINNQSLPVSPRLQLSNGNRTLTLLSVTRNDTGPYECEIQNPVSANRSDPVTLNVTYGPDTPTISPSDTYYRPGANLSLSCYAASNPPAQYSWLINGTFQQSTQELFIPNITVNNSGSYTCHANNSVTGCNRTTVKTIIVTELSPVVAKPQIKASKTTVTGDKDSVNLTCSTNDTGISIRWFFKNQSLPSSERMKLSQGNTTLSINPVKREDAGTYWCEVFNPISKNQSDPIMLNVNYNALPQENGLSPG
Assay: competition ELISA on coated recombinant human CEACAM-1; competitor biotinylated chimeric CM-10 IgG1
Attribute: IC50
Report the value in µg/mL with no unit label.

Some solved cases for reference:
Request the reported IC50 associated with humanized anti-CEACAM-1 variant VH2/VK1, IgG1 (antibody, V domains shown, Tested as human IgG1 / kappa antibody; only the variable regions are tied to this variant) VH: QVQLVQSGAEVKKPGASVKVSCKASGYAFTNNLIEWVKQAPGQGLEWIGVINPGSGDTNYNEKFKGRATLTADKSINTAYMELSRLRSDDTAVYFCARGDYYGGFAVDYWGQGTTVTVSS VL: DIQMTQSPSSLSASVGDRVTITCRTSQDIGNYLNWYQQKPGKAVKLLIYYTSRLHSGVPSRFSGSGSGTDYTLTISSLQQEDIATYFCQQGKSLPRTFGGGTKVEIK
0.68

Request the reported IC50 associated with humanized anti-CEACAM-1 variant VH1/VK2, IgG4 (S241P) (antibody, V domains shown, Tested as human IgG4 (S241P) / kappa antibody; only the variable regions are tied to this variant) VH: QVQLVQSGAELKKPGASVKVSCKASGYAFTNNLIEWVKQAPGQGLEWIGVINPGSGDTNYNEKFKGRATLTADKSINTAYMELSSLTSDDSAVYFCARGDYYGGFAVDYWGQGTSVTVSS VL: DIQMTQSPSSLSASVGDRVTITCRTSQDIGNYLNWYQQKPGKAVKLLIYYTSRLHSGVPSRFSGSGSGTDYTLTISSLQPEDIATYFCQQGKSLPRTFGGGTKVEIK
0.7

Request the reported IC50 associated with humanized anti-CEACAM-1 variant VH2/VK3, IgG1 (antibody, V domains shown, Tested as human IgG1 / kappa antibody; only the variable regions are tied to this variant) VH: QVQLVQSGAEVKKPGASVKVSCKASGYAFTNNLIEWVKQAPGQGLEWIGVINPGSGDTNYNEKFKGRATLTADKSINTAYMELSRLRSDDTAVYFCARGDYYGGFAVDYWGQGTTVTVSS VL: DIQMTQSPSSLSASVGDRVTITCRTSQDIGNYLNWYQQKPGKAVKLLIYYTSRLHSGVPSRFSGSGSGTDYTFTISSLQPEDIATYFCQQGKSLPRTFGGGTKVEIK
0.76

Request the reported IC50 associated with humanized anti-CEACAM-1 variant VH5/VK3, IgG4 (S241P) (antibody, V domains shown, Tested as human IgG4 (S241P) / kappa antibody; only the variable regions are tied to this variant) VH: QVQLVQSGAEVKKPGASVKVSCKASGYAFTNNLIEWVRQAPGQGLEWIGVINPGSGDTNYNEKFKGRVTMTADKSISTAYMELSRLRSDDTAVYYCARGDYYGGFAVDYWGQGTTVTVSS VL: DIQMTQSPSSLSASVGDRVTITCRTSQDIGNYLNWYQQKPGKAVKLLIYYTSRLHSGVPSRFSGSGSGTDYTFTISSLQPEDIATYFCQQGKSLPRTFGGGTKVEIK
0.7

Request the reported IC50 associated with humanized anti-CEACAM-1 variant VH1/VK1, IgG4 (S241P) (antibody, V domains shown, Tested as human IgG4 (S241P) / kappa antibody; only the variable regions are tied to this variant) VH: QVQLVQSGAELKKPGASVKVSCKASGYAFTNNLIEWVKQAPGQGLEWIGVINPGSGDTNYNEKFKGRATLTADKSINTAYMELSSLTSDDSAVYFCARGDYYGGFAVDYWGQGTSVTVSS VL: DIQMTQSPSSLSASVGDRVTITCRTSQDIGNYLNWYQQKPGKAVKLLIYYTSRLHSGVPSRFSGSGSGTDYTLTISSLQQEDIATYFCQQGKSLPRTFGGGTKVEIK
0.78

Request the reported IC50 associated with humanized anti-CEACAM-1 variant VH4/VK3, IgG4 (S241P) (antibody, V domains shown, Tested as human IgG4 (S241P) / kappa antibody; only the variable regions are tied to this variant) VH: QVQLVQSGAEVKKPGASVKVSCKASGYAFTNNLIEWVRQAPGQGLEWIGVINPGSGDTNYNEKFKGRATLTADKSISTAYMELSRLRSDDTAVYYCARGDYYGGFAVDYWGQGTTVTVSS VL: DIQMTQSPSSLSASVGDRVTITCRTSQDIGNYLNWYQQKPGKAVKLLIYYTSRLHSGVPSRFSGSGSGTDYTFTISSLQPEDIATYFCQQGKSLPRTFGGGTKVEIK
0.63

Further cases:
Request the reported IC50 associated with humanized anti-CEACAM-1 variant VH2/VK3, IgG4 (S241P) (antibody, V domains shown, Tested as human IgG4 (S241P) / kappa antibody; only the variable regions are tied to this variant) VH: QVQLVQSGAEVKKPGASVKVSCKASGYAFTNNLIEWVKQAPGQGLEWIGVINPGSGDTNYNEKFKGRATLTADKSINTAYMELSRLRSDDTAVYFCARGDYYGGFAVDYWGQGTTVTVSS VL: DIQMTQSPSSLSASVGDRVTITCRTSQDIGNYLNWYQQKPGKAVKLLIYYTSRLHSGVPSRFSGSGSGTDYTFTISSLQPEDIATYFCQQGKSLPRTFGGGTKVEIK
0.71

Request the reported IC50 associated with humanized anti-CEACAM-1 variant VH4/VK1, IgG4 (S241P) (antibody, V domains shown, Tested as human IgG4 (S241P) / kappa antibody; only the variable regions are tied to this variant) VH: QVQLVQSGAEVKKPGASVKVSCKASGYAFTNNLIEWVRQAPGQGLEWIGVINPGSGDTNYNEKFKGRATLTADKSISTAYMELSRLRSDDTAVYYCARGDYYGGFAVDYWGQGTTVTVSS VL: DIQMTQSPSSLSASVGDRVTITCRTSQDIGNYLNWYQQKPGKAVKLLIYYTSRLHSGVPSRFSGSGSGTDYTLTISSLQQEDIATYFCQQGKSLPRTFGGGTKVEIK
0.69

Request the reported IC50 associated with humanized anti-CEACAM-1 variant VH5/VK3, IgG1 (antibody, V domains shown, Tested as human IgG1 / kappa antibody; only the variable regions are tied to this variant) VH: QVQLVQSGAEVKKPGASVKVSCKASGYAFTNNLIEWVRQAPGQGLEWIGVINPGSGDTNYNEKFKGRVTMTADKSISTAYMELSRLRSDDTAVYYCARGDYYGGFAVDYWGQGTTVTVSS VL: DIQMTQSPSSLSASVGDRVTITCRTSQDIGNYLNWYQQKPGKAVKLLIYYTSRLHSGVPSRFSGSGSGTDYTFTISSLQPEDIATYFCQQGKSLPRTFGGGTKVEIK
0.74

Request the reported IC50 associated with humanized anti-CEACAM-1 variant VH1/VK3, IgG4 (S241P) (antibody, V domains shown, Tested as human IgG4 (S241P) / kappa antibody; only the variable regions are tied to this variant) VH: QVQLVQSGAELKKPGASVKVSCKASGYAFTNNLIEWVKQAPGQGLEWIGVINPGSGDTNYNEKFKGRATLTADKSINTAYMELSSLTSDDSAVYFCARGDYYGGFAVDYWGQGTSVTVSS VL: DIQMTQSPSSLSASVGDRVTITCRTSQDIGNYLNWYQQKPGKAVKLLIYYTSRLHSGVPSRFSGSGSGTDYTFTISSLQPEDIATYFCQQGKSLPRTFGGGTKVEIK
0.54

Data credit: patent US20240092934A1
